- study system: T1, AAV8
- T1 construct: also called adeno-associated virus serotype 8
- assay notes: SPR, AAV on CM5 chip;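 note: surface plasmon resonance with AAV amine-coupled to the chip as ligand, nanobodies injected as analyte over a concentration series, rate constants and affinity fitted from binding curves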
Assign a class from recorded Kd; defined classes: bin A: < 5 nM; bin B: ≥ 5 nM and < 40 nM; bin C: ≥ 40 nM

Which Kd category applies to A4-045 (VHH) VHH: VQLQESGGGLVQPGGSLRLSCAASGSSFSINTMGWYRQAPGKQRELVAAVTRGGVTNYADSVKGRFTISRDNAKNTVYLQMNSLRPEDTAVYYCHVDEVRQSSWTTSNLWGQGTQVTVSS here?
bin A

Which Kd category applies to A4-003 (VHH) VHH: VQLQESGGGLVQPGGSLRLSCVASGRSFSINTMGWYRQAPGKQRELVAAVTRGGSTNYAGSVKGRFTISRDNAKNTVYLQMNSLRPEDTAVYYCHIDEVRQSSWTTSNIWGQGTQVTVSS here?
bin A

Which Kd category applies to A4-019 (VHH) VHH: VQLQESGGGLVQAGGSLRLSCAASGSTFSINTMGWYRQAPGKQRELVATITRGGSTNYADSVKGRFTISRDNAKNTVYLQMNSLRPEDTAVYYCHVDEVRQSSWTTSNIWGQGTQVTVSS here?
bin B

Which Kd category applies to A4-035 (VHH) VHH: VQLQESGGGLVQAGGSLRLSCAASGRGFSINTMGWYRQAPGKQRELVAAVTRGGTTNYADSVKGRFTISRDNAKNTVYLQMNSLRPEDTAVYYCHVDEVRQSSWTTSNLWGQGTQVTVSS here?
bin A

Which Kd category applies to A4-010 (VHH) VHH: VQLQESGGGLVQAGGSLRLSCAASGSIFSINSMGWYRQAPGKQRELVATVTRGGNTNYADSVKGRFTISRDNAKNTVYLQMNSLRPEDTAVYYCHVDEVRESSWTTSNLWGQGTQVTVSS here?
bin C

Which Kd category applies to A4-030 (VHH) VHH: VQLQESGGGLVQPGGSLRLSCAASGSSFTINTMGWYRQAPGKQRELVAAVTRGGSTNYAGSVKGRFTISRDNAKNTIYLQMNSLRPEDTAVYYCHVDEIRQSSWTTSNLWGQGTQVTVSS here?
bin C

Which Kd category applies to A4-006 (VHH) VHH: VQLQESGGGLVQPGGSLRLSCAASGRHFSINTMGWYRQAPGKQRELVAAVTRGGSTNYAGSVKGRFTISRDNAKNTVYLQMNSLRPEDTAVYYCHIDEVRQSSWTTSNIWGQGTQVTVSS here?
bin B

Which Kd category applies to A4-009 (VHH) VHH: VQLQESGGGLAQPGGSLRLSCAASGSRFSINTMGWYRQAPGKQREFVAAVTRGGSTNYAGSVKGRFTISRDNAKNTVYLQMNTLRPEDTAVYYCHVDEVRQSSWTTSNIWGQGTQVTVSS here?
bin C

Which Kd category applies to A4-049 (VHH) VHH: VQLQESGGGLVQPGGSLRLSCAASGSMFSINTMGWYRQAPGKQRELVAAVTRGGNTNYAGSVKGRFTISRDNAKNTVYLQMNSLRPEDTAVYYCHVDEVRQSSWTTSNLWGQGTQVTVSS here?
bin B

Which Kd category applies to A4-005 (VHH) VHH: VQLQESGGGLVQAGGSLRLSCAASGRHFSINTMGWYRQAPGKQRELVAAVTRGGGTNYAGSVKGRFTISRDNAKNTVYLQMNSLRPEDTAVYYCHIDEVRQSSWTTSNIWGQGTQVTVSS here?
bin A

Which Kd category applies to A4-038 (VHH) VHH: VQLQESGGGLVQPGGSLRLSCAASGSHFSINTMGWYRQAPGKQRELVATVTRGGSTNYANSVKGRFTISRDNAKNTVYLQMNSLRPEDTAVYYCHLDEVRQSSWTTSNLWGQGTQVTVSS here?
bin C

Which Kd category applies to A4-043 (VHH) VHH: VQLQESGGGLVQPGGSLRLSCAASGRAFSINTMGWYRQAPGKQRELVATVTRDGSTNYAGSVKGRFTISRDNAKNTVYLQMNSLRPEDTAVYYCHVDEVRQSSWTTSNLWGQGTQVTVSS here?
bin B

Which Kd category applies to A4-026 (VHH) VHH: VQLQESGGGLVQPGGSLRLSCAASGSNFRINTMGWYRQAPGKQRELVAPVTRGGSTNYADSVKGRFTISRDNAKNTVYLQMNSLRPEDTAVYYCHVDEVRESSWTTSNLWGQGTQVTVSS here?
bin B

Which Kd category applies to A4-016 (VHH) VHH: VQLQESGGGLVQPGGSLRLSCAASGSIFSINLMGWYRQAPGKQRELVATITPGGNTNYAGSVKGRFTISRDNAKNTVYLQMNSLRPEDTAVYYCHVDEVRQSSWTTSNLWGQGTQVTVSS here?
bin B

Which Kd category applies to A4-012 (VHH) VHH: VQLQESGGGAVQAGGSLRLSCAASGSIFSINSMGWYRQAPGKQRELVATVTRGGNTNYAGSVKGRFTISRDNAKNTVYLQMNSLRPEDTAVYYCHVDEVRESSWTTSNLWGQGTQVTVSS here?
bin C

// provenance: patent US20260193326A1
